System: Leishmania donovani
Assay: Leishmania intramacrophage assay
Format: functional, organism-based
Set-up: scale not given: in the data most compounds retested in dose-response had high values
Settings: 30.3 µM; […]
The campaign covered roughly 69,000 compounds. About 1,000 (1.4%) showed an effect of 50% or more. Shown is part of a subset that was picked to be rich in strong results.
Reported values of Percent Effect for individual entries

compound	Percent Effect / %
O=C(O)C(F)(F)F.O=C(O)C(F)(F)F.O=C(O)CN1CCCC2(CCN2Cc2cccc(F)c2)C1 (stereo not given)	-0.8696
CC(C(=O)Nc1ccc(Cl)cn1)n1ccc(C(F)(F)F)n1 (stereo not given)	46.39
Cc1cnc(NC(=O)C(C)n2ccc(C(F)(F)F)n2)s1 (stereo not given)	59.23
CC(C)Cc1cc(C(=O)NCCn2nc3ccccn3c2=O)[nH]n1	7.621
CCC1CN(C(=O)c2csc3nc(-c4ccc(Cl)cc4)cn23)CCN1 (stereo not given)	94.25
Cc1ccc(NC(=O)C(C)n2ccc(C(F)(F)F)n2)nc1 (stereo not given)	38.05
O=C(O)C(F)(F)F.O=C(c1ccccc1)N1CCCC2(CCN2Cc2cccc(F)c2)C1 (stereo not given)	54.88
CCS(=O)(=O)N1CCCC2(CCCN2Cc2cccc(F)c2)C1.O=C(O)C(F)(F)F (stereo not given)	12.48
COc1ccc(CN2CCN(S(=O)(=O)c3cc(C(=O)O)cs3)CC2)cc1	15
O=S(=O)(c1ccccc1)N1CCC2(CCCN2Cc2ccc(Cl)cc2)C1 (stereo not given)	36.08

----------
Tested on: Leishmania donovani
Test: Leishmania intramacrophage assay
Assay type: functional, organism-based
Parameters: scale not given: in the data most compounds retested in dose-response had high values
Conditions: 30.3 µM; […]
Hit rate of the full screen: of about 69,000 compounds, about 1,000 (1.4%) showed an effect of 50% or more. What follows is part of a selection rich in strong results, with near analogues and random picks from the rest.
Reported Percent Effect values follow for various compounds

compound	Percent Effect
CS(=O)(=O)NCCC1CN(Cc2ccccc2F)CCO1 (configuration not stated)	18.65%
Cc1nonc1CC(=O)N1CCC2(CCCN(C3CCOCC3)C2=O)C1 (configuration not stated)	40.04%
Cc1nccn1CCC1CCCCN1Cc1ccc(O)cc1Cl (configuration not stated)	62.65%
CC(=O)NCCCc1ncnn1-c1cccc(Cl)c1	-4.184%
Oc1cc(CCC2CCCCN2)cc(-c2cccnc2)c1 (configuration not stated)	51.21%
CC(Cn1cccn1)C(=O)N1CCCN(Cc2cscn2)CC1 (configuration not stated)	10.45%
O=C(Nc1cccc(CN2CCOC2=O)c1)N1CCCC1	-5.143%
CC(=O)N1CCC2(CC1)CC(C(C)C)=NO2	-2.802%
CCCN(C(=O)c1cnns1)C1CCCN(Cc2ccccc2)C1 (configuration not stated)	15.37%
COCC1c2c(cnn2C)CCN1C(=O)c1cccn1C.O=C(O)C(F)(F)F (configuration not stated)	51.46%
O=C(NC[C@H]1OC[C@@H](NC2COC2)[C@@H]1O)c1cccs1	17.79%
COCC1c2c(cnn2C)CCN1C(=O)c1cc(C)on1.O=C(O)C(F)(F)F (configuration not stated)	13.09%

----------
// reported Percent Effect for each item listed
Test system: Leishmania donovani
Assay: Leishmania intramacrophage assay
Assay type: functional, organism-based
Parameters: scale not given: in the data most compounds retested in dose-response had high values
Settings: 30.3 µM; […]
Hit rate of the full screen: of about 69,000 compounds, about 1,000 (1.4%) showed an effect of 50% or more. The sample as a whole holds a higher share of strong results than the screen did.

compound	Percent Effect / %
CN1CCCN(C(=O)c2nc3sccn3c2-c2ncc[nH]2)CC1	0.9103
CN(C(=O)C1(C#N)CCCCC1)c1nccs1	12.59
CCCOC(C)C(=O)NCc1cc2n(n1)CCCN(C1CCCCC1)C2 (stereo unspecified)	20.03
COCCOCCNS(=O)(=O)C1CS(=O)(=O)c2ccccc21 (stereo unspecified)	-2.938
Cc1nn(CCC#N)c(C)c1[C@@H]1C=C[C@@H](NCc2ccc(F)cc2)C1	101.5
CN[C@@H](CO)C(=O)NCc1cc2n(n1)CCCN(C1CCCCC1)C2	3.405
C[C@@H]1CN(C(=O)C2CCS(=O)(=O)CC2)C[C@@]1(O)C1CC1	-11.49
Cc1cc(C)nc(N2CCC(c3cccc(CCC(=O)O)n3)CC2)n1	-9.293
Cc1nn(CCC#N)c(C)c1[C@@H]1C=C[C@@H](NCc2cccc(Cl)c2)C1	-10.48
CC(C)SCC(=O)NCc1cc2n(n1)CCCN(C1CCCCC1)C2	64.6
CN(C)C(=O)COCC1CN(Cc2ccoc2)Cc2ncn(C)c21.O=C(O)C(F)(F)F.O=C(O)C(F)(F)F (stereo unspecified)	13.81

----------
Test system: Leishmania donovani
Experiment: Leishmania intramacrophage assay
Assay type: functional, organism-based
Set-up: scale not given: in the data most compounds retested in dose-response had high values
Conditions: 30.3 µM; […]
Among all 69,000 compounds or so, about 1,000 (1.4%) showed an effect of 50% or more. Many of the other results were omitted from the sample, so strong results are more common in it than they were.
Mark True only when Percent Effect stays strictly below 40%. Values equal to the cut-off are False.

molecule	class_label
Cc1ccc2nc(C3CCCN3Cc3csc(C)n3)[nH]c2c1 (configuration not stated)	True
CC(C)Cc1cc(CC2(NCc3ccccc3Cl)COC2)no1	True
Cc1ccc(CNC2(Cc3cc(CC(C)C)on3)COC2)o1	True
COCCNC(=O)c1nc(-c2cn(C)cn2)n2ccccc12	True
Cc1ccc(CC(=O)NCC(Cc2ccc(F)cc2)C(N)=O)cn1 (configuration not stated)	False
NC(=O)C(CNC(=O)Cc1ccsc1)Cc1ccc(F)cc1 (configuration not stated)	True
CNS(=O)(=O)c1ccc(CNC(=O)N(C)CC(C)C)cc1	False
OCc1c(Cl)ncn1-c1ccccc1	False
Cc1cc(CC(C)Nc2ncnc3cccc(F)c23)[nH]n1 (configuration not stated)	True
Cc1ccc2nc(C3CCCN3Cc3cccc(CCN)c3)[nH]c2c1 (configuration not stated)	False
CC(C)Cc1cc(CC2(NCc3ccco3)COC2)no1	False
CC(Cc1cccnc1)Nc1ncnc2cccc(F)c12 (configuration not stated)	True

----------
System: Leishmania donovani
Experiment: Leishmania intramacrophage assay
Assay type: functional, organism-based
Set-up: scale not given: in the data most compounds retested in dose-response had high values
Details: 30.3 µM; […]
The whole screen tested about 69,000 compounds, of which about 1,000 (1.4%) showed an effect of 50% or more. The full list was thinned out, with strong results kept by preference.

compound	unit_of_measurement	Percent Effect
Cc1ccc(OCCNc2cccc(C(=O)N3CCOCC3)c2)cc1	%	19.35
COc1ccccc1-c1ncc(CN2C[C@@H](N(C)C)[C@H](C(C)C)C2)s1	%	52.36
COc1ccc(C2CCCN2C(=O)c2ccc(=O)n(C)c2)cc1OC (stereo not given)	%	-9.758
Cn1cc(-c2cnc(N3CCOCC3)nc2)cc1C(=O)N1CCCC1	%	13.22
Cc1cc(=O)[nH]cc1C(=O)N1Cc2ccccc2N(C)CC1C (stereo not given)	%	-24.09
O=C(CSc1ccncc1)NC1CC(=O)N(CCc2ccccc2)C1 (stereo not given)	%	1.719
O=C1O[C@@H]2CN(Cc3cccc(O)c3)C[C@@H]2N1CCCN1CCOCC1	%	8.802
CCOc1ccc(C(=O)CCC(=O)N(C)Cc2nc(C)c[nH]2)cc1C	%	-49.88
CN1CCO[C@@H]2CN(C(=O)NCc3ccccc3)CC[C@@H]2C1.O=C(O)C(F)(F)F	%	14.01
O=C(Cc1ccc(F)cc1)N1CCn2c(Cn3cncn3)cnc2C1	%	5.226

----------
Test system: Leishmania donovani
Experiment: Leishmania intramacrophage assay
Assay type: functional, organism-based
Design: scale not given: in the data most compounds retested in dose-response had high values
Settings: 30.3 µM; […]
The whole screen tested about 69,000 compounds, of which about 1,000 (1.4%) showed an effect of 50% or more. For the sample, strong results were picked, then their nearest neighbours and some compounds at random.
# key: entry, value: Percent Effect

compound	Percent Effect (%)
Cc1nn(Cn2ccc(C(=O)N3CCC(C)CC3)n2)c(C)c1Cl	52.68
Cc1ccsc1CNC(=O)c1ccc(N2CCOC2=O)cc1	-0.1452
CNC(=O)c1cc(C)n(-c2ccccc2)n1	21.3
CNC(=O)C(C)(C)CNC(=O)Nc1ccc(C)cn1	-4.041
CCOC(=O)N1CCN(C(=O)c2cc(-c3ccc(C)cc3)on2)CC1	67.95
N#Cc1c(CN2CCCCC2Cn2cncn2)cn2ccccc12 (stereo unspecified)	-0.3662

----------
Test system: Leishmania donovani
Assay: Leishmania intramacrophage assay
Format: functional, organism-based
Parameters: scale not given: in the data most compounds retested in dose-response had high values
Conditions: 30.3 µM; […]
Hit rate of the full screen: of about 69,000 compounds, about 1,000 (1.4%) showed an effect of 50% or more. What follows is part of a selection rich in strong results, with near analogues and random picks from the rest.

compound	Percent Effect
O=C(Cc1ccccn1)N1CCC2(CC1)CN(c1ncccn1)CCO2.O=C(O)C(F)(F)F.O=C(O)C(F)(F)F	12.21%
O=C(NC1CC(F)(F)C1)[C@]12COC[C@H]1CN(Cc1ccccc1)C2.O=C(O)C(F)(F)F	18.84%
Cc1noc(C(C)N2CCN(CCn3ccccc3=O)CC2)n1 (stereo not given)	29.89%
Cn1cc(C2COC3(CCN(C(=O)Cc4ccccc4)CC3)C2)cn1 (stereo not given)	7.925%
Cc1ccc(C(=O)Nc2ccc3c(c2)N(C)CCN(C)C3)c(=O)[nH]1	4.534%
